quantity-name: logP

Please review the entries below; each comes with its answer.
Consider the compound O=C(O)CCCCCO/N=C(/c1ccnnc1)c1cccc(C(F)(F)F)c1 . State its measured logP.
2.27

# return recorded logP for entry O=C(O)CCCO/N=C(\c1ccccc1)c1ccncn1
-0.47

Tell me its logP given O=C(O)CCCCCON=C(c1ccccc1)c1ncccn1 as the entry.
1.07

a: O=C(O)CCCCCO/N=C(\c1cccc(C(F)(F)F)c1)c1cnccn1
b: O=C(O)CCCO/N=C(\c1ccccc1)c1ncccn1
Just tell me: smaller logP value, a or b ? State your choice using its label.
b

----------
quantity-name: logP

Worked examples, 3 compounds total:
Determine its reported logP: O=C(O)CCCCO/N=C(\c1cncnc1)c1cccc(C(F)(F)F)c1
0.63

// fetch logP given entry O=C(O)CCCO/N=C(/c1ccccc1)c1cncnc1
-0.38

Return reported logP. Input compound: O=C(O)CCCCCO/N=C(\c1cccc(C(F)(F)F)c1)c1cccnn1
2.19

I: O=C(O)CCCCCO/N=C(\c1cncnc1)c1cccc(C(F)(F)F)c1
II: O=C(O)CCCCON=C(c1cccc(C(F)(F)F)c1)c1ccncn1
Of I versus II , which is the one with smaller reported logP? Refer to your chosen entry by its label in the reply.
I

P: O=C(O)CCCCCO/N=C(/c1cccc(C(F)(F)F)c1)c1ncccn1
Q: O=C(O)CCCCO/N=C(\c1cccc(C(F)(F)F)c1)c1cnccn1
// returns P or Q , whichever has the lower logP Let me know the label of the one you choose.
Q
(Q: 1.08, P: 1.94)

----------
quantity-name: logP

Return reported logP. Input compound: O=C(O)CCCCO/N=C(\c1ccccc1)c1ccncn1
-0.19

a: O=C(O)CCCCO/N=C(\c1ccccc1)c1ncccn1
b: O=C(O)CCCCO/N=C(\c1ccccc1)c1cncnc1
Given a and given b , which shows the smaller recorded logP? // output: label of the selected item
b
(b: -0.21, a: 0.5)

----------
quantity-name: logP

Could you please provide reported logP for O=C(O)CCCCO/N=C(/c1ccnnc1)c1cccc(C(F)(F)F)c1 ? Thanks!
1.81

P: O=C(O)CCCCCO/N=C(\c1cccc(C(F)(F)F)c1)c1ccncn1
Q: O=C(O)CCCCCO/N=C(/c1ccccc1)c1ccncn1
R: O=C(O)CCCCO/N=C(\c1cccc(C(F)(F)F)c1)c1ncccn1
# desc sort on logP across 3 compounds Answer format: the labels, in the requested order.
P, R, Q
(P: 2.49, R: 1.53, Q: 0.08)
